Target: T1, recombinant His6-tagged extracellular domain of human Clec4C (C-type lectin domain family 4, member C) (human, UniProt Q8WTT0 44-213)
T1 construct: Same antigen for immunisation, panning and ELISA; also called His-Clec4C(EC); pMET7-SIgK-His-Clec4C(EC)
T1 sequence: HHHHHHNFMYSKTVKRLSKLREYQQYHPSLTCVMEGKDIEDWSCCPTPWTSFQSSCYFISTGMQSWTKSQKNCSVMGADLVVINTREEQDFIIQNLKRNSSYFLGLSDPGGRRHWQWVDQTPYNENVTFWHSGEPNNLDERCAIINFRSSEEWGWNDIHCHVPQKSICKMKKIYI
Experiment: ELISA, TG1 periplasmic extract on coated antigen
QUANTITY: ELISA coated

- 1CL88 (VHH, pMECS VHH-HA-His6; TG1 periplasmic extract) VHH: QVQLQESGGGLVQAGGSLRLSCAASGRIFSNSAMGWFRQVLGKEREFVAAISENSSILYYTASVKGRFTISRDNDKNTVYLQMTSLKAEDTAVYYCAGYGSTTIRTTTRPTKWGQGTQVTVSS: 4
- 2CL78 (VHH, pMECS VHH-HA-His6; TG1 periplasmic extract) VHH: QVQLQESGGGVVQPGGSLKLSCAASGSTFRHHAMAWFRQTPGKEREFVSAINDHGDRTKYLDSVRGRFTISRDDTDNMVYLQMSDLRTEDTAVYTCAAGPLVDYLETTPLVYTYWGQGTQVTVSS: 3.75
- 2CL92 (VHH, pMECS VHH-HA-His6; TG1 periplasmic extract) VHH: QVQLQESGGGSVQAGDSLRLSCAASGRTFSGYAMGWFRQAPGKEREFVATISTSGSSTYYADSVKGRFTISRDNAKKSVYLQINSLKTEDAAVYYCAARLSFDNTAFYTSAIRYSYWGQGTQVTVSS: 3.89
- 2CL55 (VHH, pMECS VHH-HA-His6; TG1 periplasmic extract) VHH: QVQLQESGGGWVQPGDSLRLSCAASGSTFSDYAVGWFRQAPGKEREFVARITRLGNGPYYSASVKGRFTISRDNARDMAYLKMDALTPEDTATYYCAAGRTLASTHDTKTSPQTYDYWGQGTQVTVSS: 1.7
- 2CL90 (VHH, pMECS VHH-HA-His6; TG1 periplasmic extract) VHH: QVQLQESGGGLVQAGGSLRLSCAASGSTFRHHAMAWFRQTPGKGREFVSAINDHGDRTKYLDSVRGRFTISRDNTDNMVYLQMSDLRPEDTAVYSCAAGPLVDYLETTPLVYTYWGQGTQVTVSS: 4
- 2CL8 (VHH, pMECS VHH-HA-His6; TG1 periplasmic extract) VHH: QVQLQESGGGLVQPGGSLKLSCAGSGSTFRHHALAWFRQTAEKEREFVSAINDHGTKTRYSDSVRGRFTISRDNDGNMVYLQMDNLRPEDTAVYSCAAGPLVDYLETVPVVYTYWGQGTQVTVSS: 1.81
- 2CL56 (VHH, pMECS VHH-HA-His6; TG1 periplasmic extract) VHH: QVQLQESGGGSVQAGDSLTLSCIASGRTFSSLAMGWFRQAPGKEREFVAAINWSGDSTYYSDSMKGRLTMSRDNAKNTVFLQMNSLEPEDTAVYVCAADASGYGSAWPDRYDYWGQGTQVTVSS: 0.999
- 2CL66 (VHH, pMECS VHH-HA-His6; TG1 periplasmic extract) VHH: QVQLQESGGGLVQAGGSLRLSCAASERTFTNYAMGWFRQGPGKDRAFVAAISRSGSSTSYADSVKGRFTISRDNAENILYLQMNSLKPEDTAVYYCAAAPLVLKTTPGAYNYWGQGTQVTVSS: 2.04
- 2CL58 (VHH, pMECS VHH-HA-His6; TG1 periplasmic extract) VHH: QVQLQESGGGLVQAGDSLRLSCAASGDTFSMYAMGWFRQAPGKEREFVAAISRSGSSTNYRDSVKGRFTISRDNDLNAGYLQMNSLKPEDTAVYYCALRLTFSTTTTYTGELQYPYWGQGTQVTVSS: 2.24
- 1CL82 (VHH, pMECS VHH-HA-His6; TG1 periplasmic extract) VHH: QVQLQESGGGSVQAGDSLRLSCVAPGREISSPAMGWFRQAPGKEREFVATINWSSGATLTADSVKGRFTIFKDVEKNTVYLQMNSLRPEDTAVYSCAAGATGVFRIARAYSYWGQGTQVTVSS: 3.01
- 1CL21 (VHH, pMECS VHH-HA-His6; TG1 periplasmic extract) VHH: QVQLQESGGGLVRPGGSLRLSCVGSGSTFRHHAMAWFRQTTGKEREFVSAINDHGTKTRYSDSVRGRFTISRDNDENMVYLQMDNLRPEDTAVYSCAAGPLVDYLETVPVVYTYWGQGTQVTVSS: 3.79
- 2CL7 (VHH, pMECS VHH-HA-His6; TG1 periplasmic extract) VHH: QVQLQESGGGLVQAGDSLRLSCAPSGFTFDGYAIGWFRQAPGKEREKVACINKSDGLTYYEDSVKGRFTISSDTAKNTIHLQMNSLKPDDTAVYYCAAAWECDYAPADFGSWGQGTQVTVSS: 0.664
- 2CL82 (VHH, pMECS VHH-HA-His6; TG1 periplasmic extract) VHH: QVQLQESGGGLVQPGGSLRLSCEVSTDTFSSLAMAWFRQATGKEREFVAAISWSGASTVYGDSVKGRFTMTRDHPKKMVYLQMDNLKPEDTAVYYCAGDLDGRTWHGDDLEYDYWGQGTQVTVSS: 2.68
- 2CL88 (VHH, pMECS VHH-HA-His6; TG1 periplasmic extract) VHH: QVQLQESGGGLVQPGGSLKLSCTGSGSTFRHHAMAWFRQTPGKEREFVAAINDHGDRTKYLDSVRGRFTISRDNTDNMVYLQMSDLRPEDTANYSCAAGPLVDYLETTPLVYTYWGQGTQVTVSS: 4
- 2CL52 (VHH, pMECS VHH-HA-His6; TG1 periplasmic extract) VHH: QVQLQESGGGLAQAGASLRLSCAGSGNNFEHYAVAWFRQEAPGKERDFVAAIRDYGDRTRYADSVKGRFTISRDNAKSMVYLEMNNLKPEDTAVYYCTAGPLNDYLEVTPLVYTYWGQGTQVTVSS: 1.65
